This collection of values is drawn from Sander's compilation of Henry's law constants (doi:10.1136/oem.36.3.231).

Experiment: Henry solubility constant Hcp at 310 K (mol/(m3 Pa))
Conditions: reference: Sato and Nakajima (1979a)
Record y whenever Henry solubility constant Hcp at 310 K is at 0.001 or higher; record n when lower.

{"columns": ["lineNotation", "classLabel"],
 "data": [
  ["CCc1ccccc1", "n"],
  ["CC(C)=O", "y"],
  ["Cc1ccccc1", "n"],
  ["C=CCc1ccccc1", "y"],
  ["CC(C)c1ccccc1", "n"],
  ["Cc1ccc(C)cc1", "n"],
  ["CCCc1ccccc1", "n"],
  ["CC(=O)CC(C)C", "y"],
  ["CCCCCC(C)=O", "y"],
  ["CCCC(C)=O", "y"],
  ["CCCCC(C)=O", "y"],
  ["Cc1cccc(C)c1", "n"],
  ["CCC(=O)CC", "y"],
  ["C=Cc1ccccc1", "y"],
  ["c1ccccc1", "y"]
]}
